System: 201T
ASSAY_NOTES: relative viability (nuclei count vs DMSO), 5 days (fraction); higher = more cells survive
CONDITIONS: first compound 0.01 µM
OBSERVABLE: relative viability
Numbers only.

Worked set:
COMPOUND | TESTED_ON | relative viability
CC(C)Oc1cc(Nc2nc(N[C@@H](C)c3ccc(F)cn3)ncc2Cl)n[nH]1 [AZ23] + N=C(N)NC(=N)NCCc1ccccc1 [Phenformin] (partner 250 µM) | 201T | 0.539
CC(C)Oc1cc(Nc2nc(N[C@@H](C)c3ccc(F)cn3)ncc2Cl)n[nH]1 [AZ23] + Nc1ncn([C@H]2C[C@H](O)[C@@H](CO)O2)c(=O)n1 [Decitabine] (partner 2 µM) | 201T | 0.91
CC(C)Oc1cc(Nc2nc(N[C@@H](C)c3ccc(F)cn3)ncc2Cl)n[nH]1 [AZ23] + CC(=O)c1c(C)c2cnc(Nc3ccc(N4CCNCC4)cn3)nc2n(C2CCCC2)c1=O [Palbociclib] (partner 0.5 µM) | 201T | 0.359

// next item, relative viability requested
QUERY: Query (compound): CC(C)Oc1cc(Nc2nc(N[C@@H](C)c3ccc(F)cn3)ncc2Cl)n[nH]1 [AZ23] + CCNC(=O)c1noc(-c2cc(C(C)C)c(O)cc2O)c1-c1ccc(CN2CCOCC2)cc1 [Luminespib] (partner 0.01 µM) ; field requested: relative viability
RESULT: 1.15

###

Tested on: NCI-H2126
ASSAY_NOTES: relative viability (nuclei count vs DMSO), 5 days (fraction); higher = more cells survive
CONDITIONS: first compound 4 µM
OBSERVABLE: relative viability
Numbers only.

COMPOUND | ASSAY_VALUE
Clc1ccc(Nc2nnc(Cc3ccncc3)c3ccccc23)cc1 [Vatalanib] + CC(=O)c1c(C)c2cnc(Nc3ccc(N4CCNCC4)cn3)nc2n(C2CCCC2)c1=O [Palbociclib] (partner 0.5 µM) | 0.363

List the reported relative viability of each compound below.
1. Clc1ccc(Nc2nnc(Cc3ccncc3)c3ccccc23)cc1 [Vatalanib] + CS(=O)(=O)CCNCc1ccc(-c2ccc3ncnc(Nc4ccc(OCc5cccc(F)c5)c(Cl)c4)c3c2)o1 [Lapatinib] (partner 2 µM)
2. C[C@@H]1CN(CC(=O)Nc2ccc3c(c2)Cc2cccc(-c4cc(=O)cc(N5CCOCC5)o4)c2S3)C[C@H](C)O1 + Cc1cc(Nc2cc(N3CCN(C)CC3)nc(Sc3ccc(NC(=O)C4CC4)cc3)n2)n[nH]1 [Tozasertib] (partner 0.1 µM)
3. COc1cc(N2CCC(C(N)=O)CC2)ccc1Nc1nc(N)c(Cl)c(Nc2ccccc2S(=O)(=O)C(C)C)n1 [HG-5-88-01] + COc1cccc2cc(-c3nc([C@H]4CC[C@H](C(=O)O)CC4)n4ncnc(N)c34)[nH]c12 [OSI-027] (partner 0.5 µM)

RESULT:
1: 0.71; 2: 0.699; 3: 0.432

###

Tested on: NCI-H1915
ASSAY_NOTES: relative viability (nuclei count vs DMSO), 5 days (fraction); higher = more cells survive
CONDITIONS: first compound 0.01 µM
Provide the recorded relative viability for the entries that follow.

Completed entries (count: 3):
COMPOUND | OBSERVABLE | ASSAY_VALUE
CC(C)Oc1cc(Nc2nc(N[C@@H](C)c3ccc(F)cn3)ncc2Cl)n[nH]1 [AZ23] + CS(=O)(=O)CCNCc1ccc(-c2ccc3ncnc(Nc4ccc(OCc5cccc(F)c5)c(Cl)c4)c3c2)o1 [Lapatinib] (partner 2 µM) | relative viability | 1.12
CC(C)Oc1cc(Nc2nc(N[C@@H](C)c3ccc(F)cn3)ncc2Cl)n[nH]1 [AZ23] + C[C@]1(O)C[C@@H](c2nc(-c3ccc4ccc(-c5ccccc5)nc4c3)c3c(N)nccn32)C1 [Linsitinib] (partner 1 µM) | relative viability | 1.13
CC(C)Oc1cc(Nc2nc(N[C@@H](C)c3ccc(F)cn3)ncc2Cl)n[nH]1 [AZ23] + O=C(c1cc(Cc2n[nH]c(=O)c3ccccc23)ccc1F)N1CCN(C(=O)C2CC2)CC1 [Olaparib] (partner 8 µM) | relative viability | 0.259

QUERY: Any idea what its relative viability is? The compound is CC(C)Oc1cc(Nc2nc(N[C@@H](C)c3ccc(F)cn3)ncc2Cl)n[nH]1 [AZ23] + C[C@@H](Oc1cc(-c2cnn(C3CCNCC3)c2)cnc1N)c1c(Cl)ccc(F)c1Cl [Crizotinib] (partner 1 µM)
RESULT: 1.28
